Test: Half life in rat at 1 mg/kg iv or 2 mg/kg po
Assay type: ADME, organism-based
Conditions: in vivo
quantity-kind: half-life

INPUT: Tell us which half-life value is on record for N[C@H]1CN(c2ccc3nc(=O)ccn3n2)CC[C@@H]1c1cc(F)c(F)cc1F.O=C(O)C(F)(F)F
OUTPUT: 1.6 h

INPUT: Tell us which half-life value is on record for Cc1cc(=O)n2nc(N3CC[C@H](c4cc(F)c(F)cc4F)[C@@H](N)C3)ccc2n1.O=C(O)C(F)(F)F
OUTPUT: 1.4 h

INPUT: Tell us which half-life value is on record for N[C@H]1CN(c2cnc3nccnc3n2)CC[C@@H]1c1cc(F)c(F)cc1F.O=C(O)C(F)(F)F
OUTPUT: 1.4 h

INPUT: Tell us which half-life value is on record for Cc1nnc2ccc(N3CC[C@H](c4cc(F)c(F)cc4F)[C@@H](N)C3)nn12.O=C(O)C(F)(F)F
OUTPUT: 4.7 h

INPUT: Tell us which half-life value is on record for N[C@H]1CN(c2ccn3cnnc3n2)CC[C@@H]1c1cc(F)c(F)cc1F.O=C(O)C(F)(F)F
OUTPUT: 1.5 h

###

Biological target: Voltage-gated inwardly rectifying potassium channel KCNH2 (Homo sapiens)
Sequence (Q12809 whole entry): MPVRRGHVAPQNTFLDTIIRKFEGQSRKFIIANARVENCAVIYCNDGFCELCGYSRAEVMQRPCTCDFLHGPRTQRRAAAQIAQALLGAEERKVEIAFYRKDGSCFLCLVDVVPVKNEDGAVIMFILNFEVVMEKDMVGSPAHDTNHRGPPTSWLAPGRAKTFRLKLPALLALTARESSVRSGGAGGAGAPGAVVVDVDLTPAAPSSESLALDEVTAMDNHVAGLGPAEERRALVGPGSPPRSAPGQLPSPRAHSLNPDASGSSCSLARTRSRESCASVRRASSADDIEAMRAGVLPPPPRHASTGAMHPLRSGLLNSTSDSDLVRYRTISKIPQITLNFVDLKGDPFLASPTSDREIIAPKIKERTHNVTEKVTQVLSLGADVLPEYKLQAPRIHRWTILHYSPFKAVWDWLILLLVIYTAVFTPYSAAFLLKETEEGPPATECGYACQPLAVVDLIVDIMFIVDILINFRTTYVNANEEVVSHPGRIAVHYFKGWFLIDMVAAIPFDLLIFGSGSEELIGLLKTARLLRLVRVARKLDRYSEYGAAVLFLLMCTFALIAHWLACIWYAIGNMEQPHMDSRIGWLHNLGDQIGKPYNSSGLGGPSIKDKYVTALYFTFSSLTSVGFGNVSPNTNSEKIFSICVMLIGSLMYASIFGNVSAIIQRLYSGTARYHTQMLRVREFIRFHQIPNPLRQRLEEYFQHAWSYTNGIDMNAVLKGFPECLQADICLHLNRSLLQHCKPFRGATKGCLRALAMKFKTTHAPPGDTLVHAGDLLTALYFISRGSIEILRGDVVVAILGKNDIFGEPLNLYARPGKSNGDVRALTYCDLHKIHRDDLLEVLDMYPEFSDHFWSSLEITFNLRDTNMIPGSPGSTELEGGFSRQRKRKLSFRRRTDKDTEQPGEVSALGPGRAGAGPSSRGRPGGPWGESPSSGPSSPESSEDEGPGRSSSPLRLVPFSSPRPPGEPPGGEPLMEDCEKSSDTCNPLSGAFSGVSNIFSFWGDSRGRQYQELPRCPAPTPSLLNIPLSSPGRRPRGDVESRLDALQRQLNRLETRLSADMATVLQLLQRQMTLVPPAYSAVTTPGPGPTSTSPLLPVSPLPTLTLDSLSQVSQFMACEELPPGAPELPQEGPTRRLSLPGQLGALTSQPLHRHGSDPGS
quantity-kind: IC50
Form entry: enter the amount, then its unit.

INPUT: Report IC50 on Voltage-gated inwardly rectifying potassium channel KCNH2 (Homo sapiens) for this entry: Cc1cc(=O)n2nc(N3CC[C@H](c4cc(F)c(F)cc4F)[C@@H](N)C3)ccc2n1.O=C(O)C(F)(F)F
OUTPUT: 33.2 µM

INPUT: Report IC50 on Voltage-gated inwardly rectifying potassium channel KCNH2 (Homo sapiens) for this entry: N[C@H]1CN(c2ccc3nc(C(F)(F)F)nn3n2)CC[C@@H]1c1cc(F)c(F)cc1F
OUTPUT: 8.1 µM

INPUT: Report IC50 on Voltage-gated inwardly rectifying potassium channel KCNH2 (Homo sapiens) for this entry: N[C@H]1CN(c2ccc3nc(=O)ccn3n2)CC[C@@H]1c1cc(F)c(F)cc1F.O=C(O)C(F)(F)F
OUTPUT: 100 µM

###

quantity-kind: pIC50
Bear in mind: pIC50 is minus log10 of a mol/L concentration; give just that figure.

INPUT: Report pIC50 on UniProt:Q6V1X1 for this entry: N[C@H]1CN(c2ccc3ccccc3n2)CC[C@@H]1c1cc(F)c(F)cc1F
Sequence (Q6V1X1 whole entry): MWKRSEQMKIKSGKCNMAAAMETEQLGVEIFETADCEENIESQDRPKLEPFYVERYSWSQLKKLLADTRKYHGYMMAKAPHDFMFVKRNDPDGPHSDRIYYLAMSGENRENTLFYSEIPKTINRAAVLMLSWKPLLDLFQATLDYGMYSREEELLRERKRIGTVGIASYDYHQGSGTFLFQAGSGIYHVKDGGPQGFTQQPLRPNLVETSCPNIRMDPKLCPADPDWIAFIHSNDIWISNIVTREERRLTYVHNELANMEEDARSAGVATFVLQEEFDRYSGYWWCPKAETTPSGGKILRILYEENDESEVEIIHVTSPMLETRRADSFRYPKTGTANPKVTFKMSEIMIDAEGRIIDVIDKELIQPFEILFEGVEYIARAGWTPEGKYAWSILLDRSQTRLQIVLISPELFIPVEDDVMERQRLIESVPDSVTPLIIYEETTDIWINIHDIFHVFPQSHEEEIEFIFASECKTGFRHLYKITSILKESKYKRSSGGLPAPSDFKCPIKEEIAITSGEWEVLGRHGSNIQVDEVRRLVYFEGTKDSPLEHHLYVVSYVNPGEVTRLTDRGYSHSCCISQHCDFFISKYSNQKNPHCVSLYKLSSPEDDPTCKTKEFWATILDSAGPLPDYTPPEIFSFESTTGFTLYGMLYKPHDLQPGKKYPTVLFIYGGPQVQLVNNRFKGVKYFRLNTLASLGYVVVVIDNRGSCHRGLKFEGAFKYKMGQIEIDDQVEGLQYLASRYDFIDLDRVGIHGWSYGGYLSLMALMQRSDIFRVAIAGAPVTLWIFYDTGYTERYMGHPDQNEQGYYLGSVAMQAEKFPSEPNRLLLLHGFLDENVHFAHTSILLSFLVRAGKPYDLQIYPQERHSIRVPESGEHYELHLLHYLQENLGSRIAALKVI
OUTPUT: 5.00

INPUT: Report pIC50 on UniProt:Q6V1X1 for this entry: N[C@H]1CN(c2cnccn2)CC[C@@H]1c1cc(F)c(F)cc1F
OUTPUT: 4.12

INPUT: Report pIC50 on UniProt:Q6V1X1 for this entry: N[C@H]1CN(c2ccc3nccnc3n2)CC[C@@H]1c1cc(F)c(F)cc1F
OUTPUT: 4.60

###

Target: Dipeptidyl peptidase 9 (Homo sapiens)
Sequence (Q86TI2 whole entry): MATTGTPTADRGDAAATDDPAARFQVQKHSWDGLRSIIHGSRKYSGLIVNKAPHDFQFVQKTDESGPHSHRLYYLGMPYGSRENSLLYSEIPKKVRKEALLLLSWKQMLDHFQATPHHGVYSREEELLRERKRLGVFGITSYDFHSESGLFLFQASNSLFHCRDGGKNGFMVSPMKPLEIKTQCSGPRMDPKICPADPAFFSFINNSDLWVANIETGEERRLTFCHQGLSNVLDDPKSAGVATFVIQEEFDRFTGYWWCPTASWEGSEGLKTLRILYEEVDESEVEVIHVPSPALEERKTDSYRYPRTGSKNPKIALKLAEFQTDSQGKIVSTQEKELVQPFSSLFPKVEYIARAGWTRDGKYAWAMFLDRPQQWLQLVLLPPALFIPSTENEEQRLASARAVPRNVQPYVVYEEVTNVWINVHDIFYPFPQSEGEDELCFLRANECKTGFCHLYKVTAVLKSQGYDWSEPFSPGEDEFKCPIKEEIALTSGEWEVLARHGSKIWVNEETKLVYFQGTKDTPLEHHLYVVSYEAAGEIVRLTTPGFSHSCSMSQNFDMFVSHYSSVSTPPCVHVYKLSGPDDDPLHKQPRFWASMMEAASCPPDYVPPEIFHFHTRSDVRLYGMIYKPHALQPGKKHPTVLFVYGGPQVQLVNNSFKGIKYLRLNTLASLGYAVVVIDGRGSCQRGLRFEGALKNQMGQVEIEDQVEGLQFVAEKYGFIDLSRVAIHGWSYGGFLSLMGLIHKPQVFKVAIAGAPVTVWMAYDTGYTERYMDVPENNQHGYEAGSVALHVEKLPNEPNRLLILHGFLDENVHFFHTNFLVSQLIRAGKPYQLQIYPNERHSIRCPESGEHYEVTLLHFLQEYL
Field: label. Allowed values: 1 (IC50 < 40 µM) or 0 (IC50 >= 40 µM).

INPUT: IC50 under 40 µM? Item: N[C@H]1CN(c2ccn3cnnc3n2)CC[C@@H]1c1cc(F)c(F)cc1F.O=C(O)C(F)(F)F
OUTPUT: 0

INPUT: IC50 under 40 µM? Item: N#Cc1ccc(N2CC[C@H](c3cc(F)c(F)cc3F)[C@@H](N)C2)nc1
OUTPUT: 1

INPUT: IC50 under 40 µM? Item: Cc1nnc2ccc(N3CC[C@H](c4cc(F)c(F)cc4F)[C@@H](N)C3)nn12.O=C(O)C(F)(F)F
OUTPUT: 0

INPUT: IC50 under 40 µM? Item: N[C@H]1CN(c2ccc3nc(=O)ccn3n2)CC[C@@H]1c1cc(F)c(F)cc1F.O=C(O)C(F)(F)F
OUTPUT: 1

INPUT: IC50 under 40 µM? Item: N[C@H]1CN(c2ccc3nc(C(F)(F)F)nn3n2)CC[C@@H]1c1cc(F)c(F)cc1F
OUTPUT: 0

INPUT: IC50 under 40 µM? Item: N[C@H]1CN(c2cnc3cccnc3n2)CC[C@@H]1c1cc(F)c(F)cc1F
OUTPUT: 0

INPUT: IC50 under 40 µM? Item: N[C@H]1CN(c2ccc3nc(C(F)(F)F)cn3n2)CC[C@@H]1c1cc(F)c(F)cc1F
OUTPUT: 0

INPUT: IC50 under 40 µM? Item: N[C@H]1CN(c2cccnc2)CC[C@@H]1c1cc(F)c(F)cc1F
OUTPUT: 1

INPUT: IC50 under 40 µM? Item: Cc1cc(=O)n2nc(N3CC[C@H](c4cc(F)c(F)cc4F)[C@@H](N)C3)ccc2n1.O=C(O)C(F)(F)F
OUTPUT: 0

INPUT: IC50 under 40 µM? Item: N[C@H]1CN(c2ccc3ccccc3n2)CC[C@@H]1c1cc(F)c(F)cc1F
OUTPUT: 1

INPUT: IC50 under 40 µM? Item: N[C@H]1CN(c2ccncn2)CC[C@@H]1c1cc(F)c(F)cc1F
OUTPUT: 0
